The reported numbers originate from paper PMC5540273.

Tested on: MAP3K15;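 further: KINOMEscan kinase panel screen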
Test settings: concentration: 1 μM, replicates: in singlicate; n = 1
I'd be grateful if you could share measured %Inh for these entries.
Answers are plain numbers, in %.

Compound	Value unit	Observed measurement
COC(=O)c1c(-c2ccccc2)c2cc(C)ccc2c(=O)n1Cc1ccccc1	%	0
Nc1nc(N)c2nc(-c3ccccc3)[nH]c2n1 [SKF-12778]	%	12
COc1cc(Nc2nccc(N3CCC(NC(=O)C4COc5ccccc5O4)C3)n2)cc(OC)c1OC (stereo not shown) [GSK1379761]	%	0
COc1ccc(-c2cc3c(C)nc(N)nc3n([C@H]3CC[C@H](O)CC3)c2=O)cn1	%	0
O=C(NCc1cccs1)c1cc(C(=O)c2c(Cl)cccc2Cl)c[nH]1 [GW823670]	%	0
Fc1cccc(CSc2nnc(-c3ccc4c(c3)CCO4)o2)c1	%	15
Cc1nnc(-c2ccc(C)c(-c3ccc(C(=O)O)cc3)c2)o1 [GW608005]	%	14
CCS(=O)c1ccc(-c2coc3ccc(-c4nnc(C)o4)cc23)cc1 (stereo not shown)	%	0
COc1cccc(C2=C(N(C)c3ccccc3)C(=O)NC2=O)c1 [SB-334865]	%	0

Please look at the following compound next.
Quick one: %Inh for Nc1ncnc2c1ncn2-c1ccc(Cl)cc1 [AH2635] ?
0
